Each item that follows carries a reported pIC50.
Test: Inhibition of Clostridium perfringens neuraminidase by chemiluminescence based assay
Scale note: pIC50 = -log10(concentration in M).

Below, each entry is followed by its recorded pIC50 result.
Per the records, this compound ( CC1(C)C=Cc2c(ccc3c2OCC(O)C3)O1 (stereo unspecified) ) has pIC50 equal to 6.19

Memo: COc1ccc(-c2coc3cc(O)ccc3c2=O)cc1 , reported pIC50: 6.47

CC(C)=CCc1cc([C@@H]2CC(=O)c3ccc(O)c(CC=C(C)C)c3O2)ccc1O yielded pIC50 of 6.89

Reported pIC50 ( CC1(C)C=Cc2c(ccc(-c3coc4cc(O)ccc4c3=O)c2O)O1 ) = 7.15

What the record says about CCOC(=O)C1=C[C@@H](OC(CC)CC)[C@H](NC(C)=O)[C@@H](N)C1 : pIC50 is 3.96

New cases:
So for CC1(C)C=Cc2c(ccc([C@@H]3COc4c(ccc5c4C=CC(C)(C)O5)C3)c2O)O1 , the logged pIC50 turned out to be 6.77

The reported numbers originate from ChEMBL document CHEMBL3124906.
